Tested on: AS120
Assay: qHTS profiling for inhibitors of Plasmodium falciparum proliferation (AID 504749); also: nearly all actives have a fitted effect of over 60% in size
Conditions: P. falciparum in erythrocytes, SYBR Green DNA, 72 h; series mostly up to 28.7 µM
Procedure: NIH National Institute of Allergy and Infectious Diseases [NIAID] NIH Chemical Genomics Center [NCGC] […] Because mature erythrocytes lack DNA, only Plasmodium-derived DNA is detected. NCGC Assay Protocol Summary: The SYBR Green viability assay was adapted from a method described previously (Plouffe et al., 2008). […] The following morning, fluorescence intensity at 485(14) nm excitation and 535(25) nm emission wavelengths was measured on an EnVision (Perkin Elmer) plate reader. […]
Results filed as inconclusive are left out. Calls of active or inactive are those of the source. Calls follow the shape of the dose curve; as a rule, active = well fitted inhibition curve with a large enough effect; inconclusive = small, poorly fitted or top-dose-only effect; inactive = flat fitted curve, though single readings scatter.
Possible outcomes: 1 for active, 0 for inactive

STRUCTURE NOTATION	SYSTEM	CLASSIFICATION
CCCCCCc1ccc(O)cc1O	AS120	0
CN(C)C(=S)SC(=S)N(C)C	AS120	1
CC(C)COC(=O)c1ccc(N)cc1	AS120	0
